Test system: A549/ATCC NSCLC
assay protocol: NCI-60 one-dose screen, 48 h
condition: 10 µM
About 83,000 compounds went through this panel and 20% of them were active in at least one assay; those are over-represented in the sample as a whole. The source made the active and inactive calls. The calls were made as follows: active = growth percent below 10; inactive = the rest.
Result category, one only: active, inactive

Use these answered entries as a reference point.
compound structure string	target system	cat
COc1ccc(-c2cc(-c3cc(OC)ccc3OC)nc(N)c2C#N)cc1	A549/ATCC NSCLC	inactive
CCNCC(=O)Nc1ccc(C(=O)OCC)cc1	A549/ATCC NSCLC	inactive

Could you now look at the following compound, please?
Q: Called result for `O=C(CN(C1CCCCC1)C1CCCCC1)Nc1ccc(S(=O)(=O)c2ccc(NC(=O)CN(C3CCCCC3)C3CCCCC3)cc2)cc1`
Ans: active

====

Reported growth values for the following compounds.
Test system: SN12C renal
assay protocol: NCI-60 one-dose screen, 48 h (100 = growth as untreated, 0 = no growth, -100 = all killed)
condition: 10 µM
Compounds without any hit were thinned out: in the full panel of roughly 83,000, 20% have a hit.
The reply should be a number in %, with the unit left off.

Before answering, review these 3 worked examples.
compound structure string	growth, %
CNC(=O)c1cc(Oc2ccc3c(c2)sc2nc(-c4ccc(N)cc4)cn23)ccn1	29.4
O=C(CCc1nnc2sc(-c3cc(O)c(O)c(O)c3)nn12)c1nc2ccccc2[nH]1	107
S=C(SSC(=S)N(c1ccccc1)c1ccccc1)N(c1ccccc1)c1ccccc1	94.5

Q: Query the reported growth for SN12C renal; item: `COC(=O)c1c[nH]c2cc(OC(C)C)c(OC(C)C)cc2c1=O`
Ans: 108

====

Tested on: OVCAR-4 ovarian
assay protocol: NCI-60 one-dose screen, 48 h (100 = growth as untreated, 0 = no growth, -100 = all killed)
condition: 10 µM
Procedure: Growth inhibition of the OVCAR-4 human tumor cell line is measured as a screen for anti-cancer activity. Cells are grown in 96 well plates and exposed to the test compound for 48 hours. Compounds are tested at a single concentration, which is 10^-5 M for most compounds. The reported endpoint is percent growth (GI% or GIPRCNT), where numbers from 0 - 100% represent growth inhibition, and numbers from -100% - 0 represent cell death. For example, a value of 40 represents 60% growth inhibition. […]
The panel holds about 83,000 compounds, 20% with a hit somewhere; the sample as a whole holds those more often.
observed property: growth (%)
Form entry: value (%) — number only.

For orientation, consider the following solved cases.
compound	recorded number
CCN1CCN(CCC(=O)Nc2cccc(-n3cc(-c4ccncc4)c(-c4ccc(Cl)c(OC)c4)n3)c2)CC1	43.1
CC[C@@H](C(=O)[C@H](C)[C@H](O)[C@@H](C)[C@H]1O[C@H]([C@@H](CC)C(=O)N(CC)CC)CC[C@H]1C)C1O[C@]2(C=C[C@@H](O)[C@]3(CC[C@@](C)([C@H]4CC[C@](O)(CC)[C@H](C)O4)O3)O2)[C@H](C)C[C@@H]1C (stereo partly specified)	28.2
COc1cc(-c2nn(-c3cccc(NC(=O)CCNc4ccc(N5CCOCC5)cc4)c3)cc2-c2ccncc2)ccc1Cl	26
Cc1ccc(Cl)cc1NC(=O)CCl	76.9
Cc1cccc(N=Cc2ccccc2O)c1C	104

Q: Given the entry `O=C(CSc1nnc(-c2ccc(Cl)cc2)o1)Nc1ccc(C(=O)/C=C/c2ccc(Cl)cc2)cc1` , report its measured growth.
Ans: 89.3

Taken from PubChem BioAssay (NCI).
